The origin of these recorded values is paper PMC7618200.

# Experimental system: T1, SPOP MATH domain (SPOP^MATH; residues 28-166) (human, UniProt O43791 28-166)
# T1 chain: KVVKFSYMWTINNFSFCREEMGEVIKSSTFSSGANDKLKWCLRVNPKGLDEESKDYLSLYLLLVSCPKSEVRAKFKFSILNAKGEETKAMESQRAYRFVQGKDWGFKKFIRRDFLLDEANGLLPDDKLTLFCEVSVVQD
# Experiment summary: FP
Parameter measured: IC50 (µM)

a. QPEATQVPLVSSTSEGY (Caprin1, human, residues 426-442; source: synthetic peptide) [Caprin1 17-mer peptide 426QPEATQVPLVSSTSEGY442]
b. NDDDVQKADVSSTGQGV (also called NCoA-3; source: synthetic peptide) [SRC-3 17-mer peptide 91NDDDVQKADVSSTGQGV107]
Request: Given the two records a and b , choose the one whose IC50 value is lower. Give the chosen item's label as your response.
Result: a
(a: 2.6 µM, b: 16.9 µM)
